Item-by-item account of IC50
biological target: CDK7/Cyclin H/MAT1 complex (Homo sapiens, UniProt P50613); experiment: CDK7 kinase inhibition assay (Caliper/LabChip EZ Reader); details: CDK7/Cyclin H/MAT1 6 nM, ATP 2 mM, 35 min at 27° C.
Sequence (P50613 whole entry): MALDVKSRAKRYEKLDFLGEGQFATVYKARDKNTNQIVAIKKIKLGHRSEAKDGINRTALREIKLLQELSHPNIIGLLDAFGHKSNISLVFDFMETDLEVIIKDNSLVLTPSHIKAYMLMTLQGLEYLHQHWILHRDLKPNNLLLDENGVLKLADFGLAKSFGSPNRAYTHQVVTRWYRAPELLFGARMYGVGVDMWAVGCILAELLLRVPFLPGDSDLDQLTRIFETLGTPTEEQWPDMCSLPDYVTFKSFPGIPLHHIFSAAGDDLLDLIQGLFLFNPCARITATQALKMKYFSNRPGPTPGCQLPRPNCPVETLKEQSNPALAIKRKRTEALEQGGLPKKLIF
Sequence (P51946 whole entry partner): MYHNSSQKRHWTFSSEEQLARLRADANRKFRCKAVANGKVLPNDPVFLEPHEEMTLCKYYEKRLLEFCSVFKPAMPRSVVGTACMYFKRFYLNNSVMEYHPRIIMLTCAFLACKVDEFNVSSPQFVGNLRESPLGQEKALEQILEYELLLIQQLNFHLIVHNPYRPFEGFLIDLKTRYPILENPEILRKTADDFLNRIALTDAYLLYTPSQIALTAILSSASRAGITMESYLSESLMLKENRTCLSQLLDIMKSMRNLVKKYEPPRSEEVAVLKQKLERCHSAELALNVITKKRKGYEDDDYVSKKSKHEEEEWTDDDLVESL
Sequence (P51948 whole entry partner): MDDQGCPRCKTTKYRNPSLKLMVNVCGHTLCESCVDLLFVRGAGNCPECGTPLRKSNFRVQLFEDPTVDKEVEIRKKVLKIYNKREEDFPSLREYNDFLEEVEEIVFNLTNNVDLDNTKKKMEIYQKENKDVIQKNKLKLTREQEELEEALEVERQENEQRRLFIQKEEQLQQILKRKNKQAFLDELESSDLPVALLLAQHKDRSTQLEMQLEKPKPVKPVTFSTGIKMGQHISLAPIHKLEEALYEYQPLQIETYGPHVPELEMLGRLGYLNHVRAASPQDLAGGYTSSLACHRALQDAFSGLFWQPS
reportedEndpoint: IC50

[[record]]
compound = "FC(F)(F)c1cnc(NC2CCCNC2)nc1-c1c[nH]c2cc(-c3cccnc3)ccc12 (stereo not shown)"
measured = "< 20 nM"

[[record]]
compound = "O=C(c1ccc2c(-c3nc(NC4CCCNC4)ncc3C(F)(F)F)c[nH]c2c1)N1CCC(O)C1 (stereo not shown)"
measured = "< 20 nM"

[[record]]
compound = "FC(F)(F)c1cnc(N[C@H]2CCCNC2)nc1-c1c[nH]c2cc(/C=C/c3ccccc3)ccc12"
measured = "20 to 200 nM"

[[record]]
compound = "CCc1cnc(NC2CCCNC2)nc1-c1n[nH]c2cc(C#N)ccc12 (stereo not shown)"
measured = "< 20 nM"

